- Tested on: HEp-2
- Method Summary: Cytotoxicity against human Hep2 cells by Cell Titer-Glo assay
- Format: cell-based
// classify: if (CC50 < 30 µM) 1.0 else 0.0

>  <Molecule>
Cc1ccc(C(F)(F)F)cc1NC(=O)[C@@H]1CCCN1S(=O)(=O)c1cccc2cccnc12

>  <Label Class>
1.0

$$$$
>  <Molecule>
Cc1cc(C)cc(NC(=O)[C@@H]2CCCN2S(=O)(=O)c2cccc3cccnc23)c1

>  <Label Class>
0.0

$$$$
>  <Molecule>
Cc1ccc(NC(=O)CNS(=O)(=O)c2cccc3cccnc23)c(C)c1

>  <Label Class>
0.0

$$$$
>  <Molecule>
NC(=O)c1ncn([C@@H]2O[C@H](CO)[C@@H](O)[C@H]2O)n1

>  <Label Class>
0.0

$$$$
>  <Molecule>
Cc1ccc(C(C)(C)C)cc1NC(=O)[C@@H]1CCCN1S(=O)(=O)c1cccc2cccnc12

>  <Label Class>
1.0

$$$$

Input: Please check: CC50 for `Cc1ccc(NC(=O)[C@@H]2CCCN2S(=O)(=O)c2cccc3cccnc23)c(C)c1` , strictly under 30 µM or not?
Output: 0.0

Input: Please check: CC50 for `Cc1ccc(NC(=O)[C@H]2CCCN2S(=O)(=O)c2cccc3cccnc23)c(C)c1` , strictly under 30 µM or not?
Output: 0.0

Input: Please check: CC50 for `O=C(Nc1ccc(Cl)cc1Cl)[C@@H]1CCCN1S(=O)(=O)c1cccc2cccnc12` , strictly under 30 µM or not?
Output: 0.0

Input: Please check: CC50 for `Cc1cc(NC(=O)[C@@H]2CCCN2S(=O)(=O)c2cccc3cccnc23)n(C(C)(C)C)n1` , strictly under 30 µM or not?
Output: 0.0

Input: Please check: CC50 for `Cc1ccnc(C)c1NC(=O)[C@@H]1CCCN1S(=O)(=O)c1cccc2cccnc12` , strictly under 30 µM or not?
Output: 0.0

Input: Please check: CC50 for `Cc1cccc(C)c1NC(=O)[C@@H]1CCCN1S(=O)(=O)c1cccc2cccnc12` , strictly under 30 µM or not?
Output: 0.0

Input: Please check: CC50 for `CCc1ccccc1NC(=O)[C@@H]1CCCN1S(=O)(=O)c1cccc2cccnc12` , strictly under 30 µM or not?
Output: 0.0

Input: Please check: CC50 for `Cc1ccc(NC(=O)[C@@H]2CCCN2S(=O)(=O)c2cccc3cccnc23)cc1` , strictly under 30 µM or not?
Output: 0.0

Input: Please check: CC50 for `Cc1ccc(C(C)C)cc1NC(=O)[C@@H]1CCCN1S(=O)(=O)c1cccc2cccnc12` , strictly under 30 µM or not?
Output: 1.0

Input: Please check: CC50 for Cc1ccc(NC(=O)C2CCCN2S(=O)(=O)c2cccc3cccnc23)c(C)c1 (racemic) , strictly under 30 µM or not?
Output: 0.0
